Experiment: Unbound fraction in RT-S9 by rapid equilibrium dialysis
Format: in vitro ADME, rainbow trout (Oncorhynchus mykiss)
Details: rainbow trout (Oncorhynchus mykiss), rainbow trout liver S9 fractions (RT-S9), 10 µM test substance, 1 mg/mL RT-S9, pH 7.8, 11°C, n = 3, read-out: Unbound fraction (fU,RT-S9)
parameterMeasured: fraction unbound at 4 h, 10 µM

[in] Given CCN(CC)C(=S)SSC(=S)N(CC)CC , state its recorded fraction unbound at 4 h, 10 µM.
[out] > 0.9

----------
Target: CYP3A-like BFCOD activity (Oncorhynchus mykiss, UniProt O42563)
Sequence (O42563 1-518): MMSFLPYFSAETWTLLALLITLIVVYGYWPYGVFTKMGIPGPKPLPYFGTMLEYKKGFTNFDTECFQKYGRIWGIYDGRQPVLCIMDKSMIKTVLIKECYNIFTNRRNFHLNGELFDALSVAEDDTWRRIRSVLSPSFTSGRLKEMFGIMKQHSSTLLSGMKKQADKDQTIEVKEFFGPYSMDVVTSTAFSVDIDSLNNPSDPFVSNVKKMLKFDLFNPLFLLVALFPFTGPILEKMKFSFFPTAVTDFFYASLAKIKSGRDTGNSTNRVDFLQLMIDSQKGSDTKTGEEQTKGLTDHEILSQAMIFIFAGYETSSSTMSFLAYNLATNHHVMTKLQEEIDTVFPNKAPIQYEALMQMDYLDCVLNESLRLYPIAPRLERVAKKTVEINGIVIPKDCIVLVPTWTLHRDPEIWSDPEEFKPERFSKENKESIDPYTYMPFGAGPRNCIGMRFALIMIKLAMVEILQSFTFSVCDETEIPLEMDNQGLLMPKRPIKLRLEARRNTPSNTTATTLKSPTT
Test: BFCOD inhibition in RT-S9 (IC50 shift assay)
Conditions: both, Christophersen, Bornhoeved, rainbow trout (Oncorhynchus mykiss), s9, pH 7.8, BFCOD inhibition in RT-S9, Nominal IC50, Protocol A: 30 min preincubation without cofactors; extrapolated
parameterMeasured: IC50 at 20 min

[in] Identify the measured IC50 at 20 min of CN1CCN(C2=Nc3cc(Cl)ccc3Nc3ccccc32)CC1 for CYP3A-like BFCOD activity (Oncorhynchus mykiss, UniProt O42563).
[out] > 100 µM

----------
Could you please report measured IC50 at 20 min for the items listed next?
Molecular target: CYP3A-like BFCOD activity (Oncorhynchus mykiss)
Experiment: BFCOD inhibition in RT-S9 (IC50 shift assay)
Conditions: both, Christophersen, Bornhoeved, rainbow trout (Oncorhynchus mykiss), s9, pH 7.8, BFCOD inhibition in RT-S9, Nominal IC50, Protocol C: 30 min preincubation w/all cofactors (NADPH, UDPGA, PAPS, glutathione)
Counter-ions that a name gives are not always drawn.

[in] What value of IC50 at 20 min on CYP3A-like BFCOD activity (Oncorhynchus mykiss) does CN1CCN(C2=Nc3cc(Cl)ccc3Nc3ccccc32)CC1 have?
[out] > 100 µM

[in] Give the reported IC50 at 20 min for COc1ccc2nc([S@@+]([O-])Cc3ncc(C)c(OC)c3C)[nH]c2c1 [Esomeprazole, esomeprazole magnesium hydrate] (system: CYP3A-like BFCOD activity (Oncorhynchus mykiss)).
[out] > 100 µM

[in] Reported IC50 at 20 min for CYP3A-like BFCOD activity (Oncorhynchus mykiss), given CN1CCCC(n2nc(Cc3ccc(Cl)cc3)c3ccccc3c2=O)CC1 (stereo not drawn) [Azelastine, azelastine hydrochloride] ?
[out] > 100 µM

----------
Tested on: CYP1A-like ethoxyresorufin O-deethylase (EROD) activity
Test: in vitro
Conditions: both, Christophersen, Bornhoeved, rainbow trout (Oncorhynchus mykiss), pH 7.8, EROD inhibition in RT-S9, Nominal IC50
Where a name gives a salt, the structure may show the parent alone.
Provide the recorded IC50 at 10 min for the entries that follow.
State the answer as a number, implicitly in µM.

[in] Can you look up the measured IC50 at 10 min of CN1CCN(C2=Nc3cc(Cl)ccc3Nc3ccccc32)CC1 for me?
[out] 46

[in] Name the reported IC50 at 10 min value associated with the molecule COc1cc2nc(N3CCN(C(=O)c4ccco4)CC3)nc(N)c2cc1OC [Prazosin, prazosin hydrochloride]
[out] 21

[in] Reported IC50 at 10 min for CN1CCCC(n2nc(Cc3ccc(Cl)cc3)c3ccccc3c2=O)CC1 (centres unmarked) [Azelastine, azelastine hydrochloride] : what is it?
[out] 28

----------
Target: CYP3A-like BFCOD activity (Oncorhynchus mykiss, UniProt O42563)
Assay: BFCOD inhibition in RT-S9 (IC50 shift assay)
Details: both, Christophersen, Bornhoeved, rainbow trout (Oncorhynchus mykiss), s9, pH 7.8, BFCOD inhibition in RT-S9, IC50 shift (A/C), IC50 Protocol A / IC50 Protocol C
parameterMeasured: IC50 shift at 20 min

[in] Any idea what its IC50 shift at 20 min is? The compound is COc1ccc2nc([S@@+]([O-])Cc3ncc(C)c(OC)c3C)[nH]c2c1 [Esomeprazole, esomeprazole magnesium hydrate]
[out] 0.8

# credit: paper PMC11284600
